Target: human NAMPT (Homo sapiens)
Sequence (P43490 whole entry): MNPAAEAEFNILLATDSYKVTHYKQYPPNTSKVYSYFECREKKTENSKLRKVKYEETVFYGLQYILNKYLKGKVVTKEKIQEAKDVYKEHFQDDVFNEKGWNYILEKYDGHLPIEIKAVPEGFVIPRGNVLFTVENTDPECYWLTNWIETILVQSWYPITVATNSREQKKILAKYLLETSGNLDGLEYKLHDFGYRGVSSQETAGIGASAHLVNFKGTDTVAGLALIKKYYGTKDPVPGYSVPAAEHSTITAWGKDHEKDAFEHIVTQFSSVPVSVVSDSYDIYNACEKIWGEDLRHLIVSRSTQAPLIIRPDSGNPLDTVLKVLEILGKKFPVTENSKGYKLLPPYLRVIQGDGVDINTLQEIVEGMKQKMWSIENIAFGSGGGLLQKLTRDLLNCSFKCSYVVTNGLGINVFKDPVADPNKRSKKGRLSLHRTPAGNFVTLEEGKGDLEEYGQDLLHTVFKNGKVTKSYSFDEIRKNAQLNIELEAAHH
Test: Human recombinant enzyme assay (NMN fluorescence biochemical assay, activation of NAMPT)
Conditions: Table A; human recombinant NAMPT, NMN formation, 60 min; read-out: EC50 Human
pEC50 values, listed per item
Give only the number. pEC50 is defined as minus log10 of concentration in molar units.

Answered cases to consult:
| compound | endpoint result |
| --- | --- |
| CC(C)(C)OC(=O)NC1CC2(CC(NC(=O)NCc3cn[nH]c3)C2)C1 (stereo not drawn) | 4.29 |
| COc1ccc(CNC(=O)NC2CC3(CC(Cc4ccc(C)nc4)C3)C2)cc1 (stereo not drawn) | 4.58 |
| COc1ccc(CNC(=O)NC2CC3(C2)CN(C(=O)c2cccc(C(C)C)c2)C3)cc1 | 4.69 |

Which value of pEC50 has been reported for `Cc1cccc(N2CC[C@]3(C2)C[C@H](NC(=O)NCc2ccc(Cl)cc2)C3)n1` in the records? 4.37

Which value of pEC50 has been reported for CC(C)(C)OC(=O)NC1CC2(CC(NC(=O)NCc3ccc(C(N)=O)cc3)C2)C1 (stereo not drawn) in the records? 4.59

Which value of pEC50 has been reported for `COc1ccc(CNC(=O)NC2CC3(C2)CN(C(=O)Cc2ccccc2C(F)(F)F)C3)cc1` in the records? 4.27

Which value of pEC50 has been reported for CC(C)(O)CN1CCN(C(=O)CC2CC3(C2)CC(NC(=O)NCc2ccc(Cl)cc2)C3)CC1 (stereo not drawn) in the records? 5.07

Which value of pEC50 has been reported for CC(C)(C)OC(=O)N1CCC2(CC1)CC2CNC(=O)NCc1cnco1 (stereo not drawn) in the records? 4.42

Which value of pEC50 has been reported for O=C(NCc1ccc(Cl)cc1)NC1CC2(C1)CC(NS(=O)(=O)Cc1ccccc1Cl)C2 (stereo not drawn) in the records? 5.59

Which value of pEC50 has been reported for `Cc1ccc(C(=O)N2CC[C@]3(C2)C[C@@H](NC(=O)NCc2ccc(Cl)cc2)C3)cc1` in the records? 4.64

Which value of pEC50 has been reported for `Cc1ccc(C(=O)N2CC3(CC(NC(=O)NCc4ccc(F)cc4)C3)C2)cc1` in the records? 5.18

Which value of pEC50 has been reported for `COc1ccc(CNC(=O)NC2CC3(C2)CN(C(=O)c2cccc(C(C)(C)O)c2)C3)cc1` in the records? 4.26

Which value of pEC50 has been reported for `CC(C)(C)CN1CCN(C(=O)CCCCCNC(=O)NCc2ccc(Cl)cc2)CC1` in the records? 4.76

Which value of pEC50 has been reported for `O=C(NCCCCC1CCN(C(=O)c2ccccc2)CC1)NCc1ccc(CO)cc1` in the records? 5.96

Which value of pEC50 has been reported for `O=C(NCc1ccc(Cl)cc1)NC1CC2(C1)CN(S(=O)(=O)c1cccc(Cl)c1)C2` in the records? 4.70

Which value of pEC50 has been reported for O=C(NCc1ccc(Cl)cc1)NC1CC2(C1)CC(OCc1cccnc1)C2 (stereo not drawn) in the records? 5.21

Which value of pEC50 has been reported for `COc1ccc(CNC(=O)NC2CC3(C2)CN(C(=O)c2cccc(-n4cccc4)c2)C3)cc1` in the records? 4.67

Which value of pEC50 has been reported for `Cc1ccccc1CC(=O)N1CCC(CCCCNC(=O)NCc2ccc(Cl)cc2)CC1` in the records? 5.85

Which value of pEC50 has been reported for `O=C(NCCCCC1CCN(C(=O)c2ccccc2)CC1)NCc1cnco1` in the records? 5.85

Which value of pEC50 has been reported for `O=C(NCCCCC1CCN(C(=O)Cc2cccnc2)CC1)NCc1ccc(Cl)cc1` in the records? 5.00

Which value of pEC50 has been reported for COc1ccc(CNC(=O)N[C@H]2C[C@]3(C2)C[C@H](C(=O)N2CCCc4ccccc42)C3)cc1 (stereo partly drawn) in the records? 5.92

Which value of pEC50 has been reported for O=C(NCc1ccc(Cl)cc1)NC1CC2(CC(CN3CCC[C@@H]3c3cccnc3)C2)C1 (stereo partly drawn) in the records? 4.65

Which value of pEC50 has been reported for `COc1ccccc1S(=O)(=O)N1CC2(CC(NC(=O)NCc3ccc(Cl)cc3)C2)C1` in the records? 4.65

Which value of pEC50 has been reported for `O=C(CCCCCNC(=O)NCc1ccc(Cl)cc1)Nc1ccccc1F` in the records? 5.59

Which value of pEC50 has been reported for `O=C(NCCCCC1CCN(C(=O)Cc2ccncc2)CC1)NCc1ccc(Cl)cc1` in the records? 5.08

Which value of pEC50 has been reported for COc1ccc(CNC(=O)NC2CC3(C2)CC(C(=O)Nc2ccccc2)C3)cc1 (stereo not drawn) in the records? 4.31

Which value of pEC50 has been reported for `Cc1ccccc1C(=O)NCCCCCNC(=O)NCc1ccc(Cl)cc1` in the records? 4.94

Which value of pEC50 has been reported for `COc1ccc(CNC(=O)NC2CC3(C2)CN(C(=O)C(C)(C)c2ccc(C)cc2)C3)cc1` in the records? 4.58

Numbers sourced from patent US20230348369A1.
